test: Induction of NO release in glutathione buffer assessed as nitrite level at 400 uM after 1 hr by Griess assay (reference value: 3.3 +/- 1.2 uM); format: physicochemical
Kindly supply the reported log10 Activity values for the records listed here.
Give log10 of Activity, with Activity taken in µM.

log10 Activity recorded for this compound, CC1=C(CC(=O)O)c2cc(F)ccc2/C1=C\c1ccc([S+](C)[O-])cc1 (stereo not given) , is 0.04

log10 Activity recorded for this compound, CC1=C(CC(=O)OC/C=C\COc2no[n+]([O-])c2S(=O)(=O)c2ccccc2)c2cc(F)ccc2/C1=C\c1ccc([S+](C)[O-])cc1 (stereo not given) , is 1.71

log10 Activity recorded for this compound, `CSc1ccc(/C=C2/C(C)=C(CC(=O)OCCCCOc3no[n+]([O-])c3S(=O)(=O)c3ccccc3)c3cc(F)ccc32)cc1` , is 1.52

log10 Activity recorded for this compound, CC1=C(CC(=O)OCCCCCCOc2no[n+]([O-])c2S(=O)(=O)c2ccccc2)c2cc(F)ccc2/C1=C\c1ccc([S+](C)[O-])cc1 (stereo not given) , is 1.74

log10 Activity recorded for this compound, `CSc1ccc(/C=C2/C(C)=C(CC(=O)OCCOc3no[n+]([O-])c3S(=O)(=O)c3ccccc3)c3cc(F)ccc32)cc1` , is 1.61

Data provenance is ChEMBL document CHEMBL3102738.
